Quick record: IC50, Oxytocin receptor (Rattus norvegicus).

# compound, study.system, unit.label, IC50
rows = [
    ("Cc1ccccc1C(=O)Nc1ccc(C(=O)N2CCCC(CCO)c3cc(Cl)ccc32)cn1 (stereo not shown)", "Oxytocin receptor (Rattus norvegicus)", "µM", 0.32),
    ("Cc1ccccc1C(=O)Nc1ccc(C(=O)N2CCCN(C)c3cc(Cl)ccc32)cn1", "Oxytocin receptor (Rattus norvegicus)", "µM", 1.6),
    ("Cc1ccccc1C(=O)Nc1ccc(C(=O)N2CCCC(NC3CC3)c3cc(Cl)ccc32)cn1 (stereo not shown)", "Oxytocin receptor (Rattus norvegicus)", "µM", 1.8),
    ("CC(=O)OCCC1CCCN(C(=O)c2ccc(NC(=O)c3ccccc3Cl)nc2)c2ccc(Cl)cc21 (stereo not shown)", "Oxytocin receptor (Rattus norvegicus)", "µM", 0.64),
]

----------
study.system: V2 receptor (Rattus norvegicus)
Construct: Using rat kidney plasma membrane preparations
run.description: biochemical
setup.conditions: rat kidney plasma membrane, [3H]-Arg-vasopressin, 4° C., pH 8.0, read-out: IC50 in V2 receptor binding assay
pIC50: −log10 of the molar value.
Reported pIC50 by item:
endpoint.name: pIC50

# molecule, study.system, readout.number
rows = [
    ("Cc1cccc(C(=O)Nc2ccc(C(=O)N3CCCC(O)c4cc(Cl)ccc43)cn2)c1 (stereo not shown)", "V2 receptor (Rattus norvegicus)", 7.68),
    ("O=C(Nc1ccc(C(=O)N2CCCC(NC3CC3)c3cc(Cl)ccc32)cn1)c1ccccc1Cl (stereo not shown)", "V2 receptor (Rattus norvegicus)", 8.00),
    ("O=C(Nc1ccc(C(=O)N2CCCC(O)c3cc(Cl)ccc32)cn1)c1cccs1 (stereo not shown)", "V2 receptor (Rattus norvegicus)", 6.92),
    ("O=C(Nc1ccc(C(=O)N2CCCC(O)c3cc(Cl)ccc32)cn1)c1ccccc1[N+](=O)[O-] (stereo not shown)", "V2 receptor (Rattus norvegicus)", 7.96),
    ("Cc1ccccc1C(=O)Nc1ccc(C(=O)N2CCCCc3cc(Cl)ccc32)cn1", "V2 receptor (Rattus norvegicus)", 8.00),
    ("Cc1ccccc1C(=O)Nc1ccc(C(=O)N2CCCC(O)c3cc(Cl)ccc32)s1 (stereo not shown)", "V2 receptor (Rattus norvegicus)", 6.52),
    ("Cc1ccccc1C(=O)Nc1ccc(C(=O)N2CCCC(CCNC(C)C)c3cc(Cl)ccc32)cn1 (stereo not shown)", "V2 receptor (Rattus norvegicus)", 8.39),
    ("O=C(Nc1ccc(C(=O)N2CCCC(CCN3CCOCC3)c3cc(Cl)ccc32)cn1)c1ccccc1Cl (stereo not shown)", "V2 receptor (Rattus norvegicus)", 8.23),
    ("O=C(Nc1ccc(C(=O)N2CCCC(CC(=O)N3CCCC3)c3cc(Cl)ccc32)cn1)c1ccccc1Cl (stereo not shown)", "V2 receptor (Rattus norvegicus)", 8.52),
    ("CC(=O)OCCC1CCCN(C(=O)c2ccc(NC(=O)c3ccccc3Cl)nc2)c2ccc(Cl)cc21 (stereo not shown)", "V2 receptor (Rattus norvegicus)", 8.52),
    ("O=C1c2ccccc2OCCN1c1ccc(C(=O)N2CCCCc3cc(Cl)ccc32)cn1", "V2 receptor (Rattus norvegicus)", 7.44),
    ("Cc1ccccc1C(=O)Nc1ccc(C(=O)N2CCCC(CC(=O)O)c3cc(Cl)ccc32)cn1 (stereo not shown)", "V2 receptor (Rattus norvegicus)", 7.17),
    ("CC(=O)NC1CCN(CCOc2ccccc2C(=O)Nc2ccc(C(=O)N3CCCCc4cc(Cl)ccc43)cn2)CC1", "V2 receptor (Rattus norvegicus)", 6.42),
    ("CC(=O)N1CCN(CCC2CCCN(C(=O)c3ccc(NC(=O)c4ccccc4Cl)nc3)c3ccc(Cl)cc32)CC1 (stereo not shown)", "V2 receptor (Rattus norvegicus)", 8.34),
    ("O=C(Nc1ccc(C(=O)N2CCCC(O)c3cc(Cl)ccc32)cn1)C1CCCCC1 (stereo not shown)", "V2 receptor (Rattus norvegicus)", 7.80),
    ("COC1CCCN(C(=O)c2ccc(NC(=O)c3ccccc3Br)nc2)c2ccc(Cl)cc21 (stereo not shown)", "V2 receptor (Rattus norvegicus)", 8.72),
    ("Cc1ccccc1C(=O)Nc1ccc(C(=O)N2CCCC(OCCn3ccnc3)c3cc(Cl)ccc32)cn1 (stereo not shown)", "V2 receptor (Rattus norvegicus)", 8.10),
    ("NC(=O)COc1ccccc1C(=O)Nc1ccc(C(=O)N2CCCCc3cc(Cl)ccc32)cn1", "V2 receptor (Rattus norvegicus)", 6.80),
    ("CN1CCCN(C(=O)c2ccc(NC(=O)c3ccccc3Cl)nc2)c2ccc(Cl)cc21", "V2 receptor (Rattus norvegicus)", 7.72),
    ("O=C(Nc1ccc(C(=O)N2CCCC(OCCNC3CCCC3)c3cc(Cl)ccc32)cn1)c1ccccc1Cl (stereo not shown)", "V2 receptor (Rattus norvegicus)", 8.10),
    ("CN(C)C(=O)COC1CCCN(C(=O)c2ccc(NC(=O)c3ccccc3Cl)nc2)c2ccc(Cl)cc21 (stereo not shown)", "V2 receptor (Rattus norvegicus)", 8.28),
    ("Cc1ccccc1C(=O)Nc1ccc(C(=O)N2CCCC(CC(=O)N3CCN(C)CC3)c3cc(Cl)ccc32)cn1 (stereo not shown)", "V2 receptor (Rattus norvegicus)", 8.52),
    ("Cc1ccccc1C(=O)Nc1ccc(C(=O)N2CCCC(OCCN3CCOCC3)c3cc(Cl)ccc32)cn1 (stereo not shown)", "V2 receptor (Rattus norvegicus)", 8.00),
    ("Cc1ccccc1C(=O)Nc1ccc(C(=O)N2CCCN(C)c3cc(Cl)ccc32)cn1", "V2 receptor (Rattus norvegicus)", 7.66),
    ("O=C(O)CC1CCCN(C(=O)c2ccc(NC(=O)c3ccccc3Br)nc2)c2ccc(Cl)cc21 (stereo not shown)", "V2 receptor (Rattus norvegicus)", 7.48),
    ("O=C(Nc1ccc(C(=O)N2CCCCc3cc(Cl)ccc32)cn1)c1ccccc1Br", "V2 receptor (Rattus norvegicus)", 8.15),
    ("Cc1ccccc1C(=O)Nc1ccc(C(=O)N2CCCC(O)c3cc(Cl)ccc32)nc1 (stereo not shown)", "V2 receptor (Rattus norvegicus)", 7.21),
    ("O=C(Nc1ccc(C(=O)N2CCCC(CC(=O)N3CCNCC3)c3cc(Cl)ccc32)cn1)c1ccccc1Cl (stereo not shown)", "V2 receptor (Rattus norvegicus)", 8.51),
    ("Cc1ccccc1C(=O)Nc1ccc(C(=O)N2CCCC(O)(CO)c3cc(Cl)ccc32)cn1 (stereo not shown)", "V2 receptor (Rattus norvegicus)", 7.80),
    ("CN1CCN(C(=O)COc2ccccc2C(=O)Nc2ccc(C(=O)N3CCCCc4cc(Cl)ccc43)cn2)CC1", "V2 receptor (Rattus norvegicus)", 6.70),
    ("Cc1ccccc1C(=O)Nc1cnc(C(=O)N2CCCC(O)c3cc(Cl)ccc32)s1 (stereo not shown)", "V2 receptor (Rattus norvegicus)", 6.60),
]

----------
Each item that follows carries a reported IC50.
study.system: V2 receptor (Rattus norvegicus, UniProt Q00788)
Construct: Using rat kidney plasma membrane preparations
Sequence (Q00788 whole entry): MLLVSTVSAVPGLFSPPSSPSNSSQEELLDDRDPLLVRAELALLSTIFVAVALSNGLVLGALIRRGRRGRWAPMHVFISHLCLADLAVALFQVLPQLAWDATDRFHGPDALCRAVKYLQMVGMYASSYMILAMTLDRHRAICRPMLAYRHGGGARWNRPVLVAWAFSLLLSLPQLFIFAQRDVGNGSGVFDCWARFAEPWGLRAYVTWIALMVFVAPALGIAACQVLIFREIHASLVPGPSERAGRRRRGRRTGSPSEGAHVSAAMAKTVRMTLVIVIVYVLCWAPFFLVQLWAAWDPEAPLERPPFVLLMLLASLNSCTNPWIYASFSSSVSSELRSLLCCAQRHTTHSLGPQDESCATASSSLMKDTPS
run.description: biochemical
setup.conditions: rat kidney plasma membrane, [3H]-Arg-vasopressin, 4° C., pH 8.0, read-out: IC50 in V2 receptor binding assay
endpoint.name: IC50 (nM)

# compound, readout.number
records = [
    ("Cc1ccccc1CC(=O)Nc1ccc(C(=O)N2CCCC(O)c3cc(Cl)ccc32)cn1 (stereo not shown) [Compound of Ex. 33]", 3),
    ("CC(=O)N1CCN(CCOC2CCCN(C(=O)c3ccc(NC(=O)c4ccccc4Cl)nc3)c3ccc(Cl)cc32)CC1 (stereo not shown) [Compound of Ex. 181]", 4.4),
    ("CC(=O)NCCOC1CCCN(C(=O)c2ccc(NC(=O)c3ccccc3C)nc2)c2ccc(Cl)cc21 (stereo not shown) [Compound of Ex. 38]", 3),
    ("Cc1ccccc1C(=O)Nc1ccc(C(=O)N2CCCC(CCO)c3cc(Cl)ccc32)cn1 (stereo not shown) [Compound of Ex. 123]", 3.2),
    ("O=C(O)COC1CCCN(C(=O)c2ccc(NC(=O)c3ccccc3Cl)nc2)c2ccc(Cl)cc21 (stereo not shown) [Compound of Ex. 169]", 19),
    ("Cc1ccccc1C(=O)Nc1ccc(C(=O)N2CCCC(CC(=O)N(C)C)c3cc(Cl)ccc32)cn1 (stereo not shown) [Compound of Ex. 41]", 4),
    ("Cc1ccccc1C(=O)Nc1ccc(C(=O)N2CCCC(OCCO)c3cc(Cl)ccc32)cn1 (stereo not shown) [Compound of Ex. 36]", 3),
]
